Assay: qHTS assay to identify small molecule agonists of the constitutive androstane receptor (CAR) signaling pathway - cell viability counter screen (AID 1224836); note: % is set by controls: 0 for no effect and ±100 for the full control effect; nearly all actives have a fitted effect of over 45% in size
Settings: HepG2-CYP2B6-hCAR viability, CellTiter-Fluor, 23 h, PK11195 added to every well; series mostly up to 92.4 µM
Records with an inconclusive call do not appear. Activity calls are given as the source filed them. Calls come from the whole dose curve; as a rule, active = well fitted cell-killing curve with a large enough effect in the repeat runs; inconclusive = weak or mixed curves, or effect the other way; inactive = flat fitted curve, though single readings scatter.
Field 'call' accepts True for active, False for inactive

Before answering, review these 5 worked examples.
1. CC(C)CCCCCOC(=O)CCS: False
2. O=C(/C=C/c1ccccc1)OC/C=C/c1ccccc1: False
3. CCCCC(CC)COC(=O)CCCCC(=O)OCc1ccccc1 (stereo not drawn): False
4. C=C(C)C(=O)OCCCCCCCCCC: False
5. OCC(F)(F)F: False

// return assay outcome for CCCC(=O)OCOC(=O)C1=C(C)NC(C)=C(C(=O)OC)C1c1cccc(Cl)c1Cl (stereo not drawn)
False

---

Assay: A CellTox Green Cytotoxicity Assay to monitor cytotoxicity in HEK293 cells - 24 hour (AID 1224875); note: % is set by controls: 0 for no effect and ±100 for the full control effect; nearly all actives have a fitted effect of over 45% in size
Conditions: CellTox Green fluorescence; series mostly up to 76.8 µM
Inconclusive results are not listed. Activity calls are given as the source filed them. Calls come from the whole dose curve; as a rule, active = well fitted activation curve with a large enough effect in the repeat runs; inconclusive = weak or mixed curves; inactive = flat fitted curve, though single readings scatter.
Field 'call' accepts true (1) = active, false (0) = inactive

Before answering, review these 6 worked examples.
1) O[C@@H]([C@H](O)[C@H](O)CBr)[C@H](O)CBr: false (0)
2) O=S(=O)(O)c1ccc(Nc2nc(Nc3ccc(/C=C/c4ccc(Nc5nc(Nc6ccc(S(=O)(=O)O)cc6)nc(N(CCO)CCO)n5)cc4S(=O)(=O)O)c(S(=O)(=O)O)c3)nc(N(CCO)CCO)n2)cc1: false (0)
3) CN(C)c1ccc(C(=C2C=CC(=[N+](C)C)C=C2)c2ccc(N(C)C)cc2)cc1: false (0)
4) COC(=O)c1ccccc1C: false (0)
5) NC(=S)NC(N)=S: false (0)
6) CC/C=C\CCCCCO: false (0)

// return assay outcome for CC(CO)Oc1ccccc1 (stereo not given)
false (0)

Next record, please: `CCc1oc2ccccc2c1C(=O)c1cc(I)c(O)c(I)c1`
false (0)

Next record, please: `C=C(CC)C(=O)c1ccc(OCC(=O)O)c(Cl)c1Cl`
false (0)

Next record, please: `CC1=Nc2ccccc2C1(C)C`
false (0)

Next record, please: `CCN(CCN)c1cccc(C)c1`
false (0)

---

Assay: qHTS RealTime-Glo MT Cell Viability Assay in HepG2 cells - 40 hour (AID 1224870); note: nearly all actives have a fitted effect of over 50% in size
Conditions: RealTime-Glo luminescence; series mostly up to 76.8 µM
Excerpt: National Center for Advancing Translational Sciences [NCATS] NIH Chemical Genomics Center [NCGC] U.S. Environmental Protection Agency [EPA] National Institutes of Environmental Health Sciences [NIEHS] National Toxicology Program [NTP] U.S. Food and Drug Administration [FDA] Measure of cell viability is critical in the cell-base assay. Analysis of cell viability is necessary for the characterization of cell responses to cytotoxic drugs and environmental stress. […]
Records with an inconclusive call do not appear. Active and inactive are the calls of the source. Calls follow the shape of the dose curve; as a rule, active = well fitted cell-killing curve with a large enough effect in the repeat runs; inconclusive = weak or mixed curves, or effect the other way; inactive = flat fitted curve, though single readings scatter.
Field 'call' accepts active, inactive

Before answering, review these 2 worked examples.
1. Nc1ccc(Oc2ccc(Cl)cc2)cc1: inactive
2. CN(C)C(=O)COC(=O)Cc1ccc(OC(=O)c2ccc(N=C(N)N)cc2)cc1: inactive

// return assay outcome for CCOC(=O)c1ccc(C2CCC(NC[C@H](O)COc3ccc(O)c(NS(C)(=O)=O)c3)CC2)cc1 (stereo partly drawn)
active

Next record, please: CN1CCN2c3ccccc3Cc3ccccc3C2C1 (stereo not drawn)
inactive

Next record, please: CCCCCCOC(=O)C(C)CC (stereo not drawn)
inactive

Next record, please: `CCc1oc2ccccc2c1C(=O)c1cc(I)c(O)c(I)c1`
inactive

Next record, please: `CCC(=O)OC(=O)CC`
inactive

Next record, please: `C#C[C@]1(O)CC[C@H]2[C@@H]3[C@H](C)CC4=C(CCC(=O)C4)[C@H]3CC[C@@]21C`
inactive

Next record, please: `CCCCOC(=O)CO`
inactive

Next record, please: `Nc1ccc(C(=O)O)c(O)c1`
inactive

Next record, please: `Oc1ccccc1O`
inactive

Next record, please: `CC1(C)CCC[C@]2(C)[C@H]3CCO[C@]3(C)CC[C@@H]12`
inactive

Next record, please: `ClCCl`
inactive

---

Assay: qHTS assay to identify small molecule agonists of the peroxisome proliferator-activated receptor delta (PPARd) signaling pathway - cell viability counter screen (AID 743211); note: % is set by controls: 0 for no effect and ±100 for the full control effect; nearly all actives have a fitted effect of over 55% in size
Conditions: PPARd-bla HEK293H viability, CellTiter-Glo luminescence, 17 h; series mostly up to 62.6 µM
Results filed as inconclusive are left out. The source made the active and inactive calls. Calls come from the whole dose curve; as a rule, active = well fitted cell-killing curve with a large enough effect in the repeat runs; inconclusive = weak or mixed curves; inactive = no such curve, though single readings can be large or run the other way.
Measured Parameter: outcome

1) Cc1ccc(-c2ccccc2)cc1: inactive
2) O=C(Oc1ccccc1)Oc1ccccc1: inactive
3) O=C(O)Cc1ccc2c(c1)C(=O)c1ccccc1CO2: inactive

---

Test: qHTS assay to identify small molecule agonists of the retinoic acid receptor (RAR) signaling pathway (AID 1159553); note: % is set by controls: 0 for no effect and ±100 for the full control effect
Conditions: C3RL4 RARE luciferase reporter, agonist, 6 h
Records with an inconclusive call do not appear. Calls of active or inactive are those of the source. Calls come from the whole dose curve; as a rule, active = well fitted activation curve with a large enough effect in the repeat runs; inconclusive = weak or mixed curves, or effect the other way; inactive = no such curve, though single readings can be large or run the other way.
Field 'call' accepts 1 (yes) = active, 0 (no) = inactive

1) Cc1cc(C(C)(C)C)cc(C)c1CC1=NCCN1: 0 (no)
2) CCC(CC)C(C)CCOC(C)=O (stereo not given): 0 (no)

// return assay outcome for `Cc1ccc(C(C)C)cc2c(C)ccc1-2`
0 (no)

Next record, please: `Cc1ccc(C(=O)O)cc1`
0 (no)

---

Experiment: qHTS RealTime-Glo MT Cell Viability Assay in HepG2 cells - 32 hour (AID 1224877); note: % is set by controls: 0 for no effect and ±100 for the full control effect; nearly all actives have a fitted effect of over 55% in size
Conditions: RealTime-Glo luminescence; series mostly up to 76.8 µM
Results filed as inconclusive are left out. The source made the active and inactive calls. The call rests on the fitted dose curve; in most records, active means well fitted cell-killing curve with a large enough effect in the repeat runs; inconclusive means weak or mixed curves; inactive means flat fitted curve, though single readings scatter.
Reported activity change, negative = cytotoxic values follow for various compounds

1. O=C(O)O: 7.61% [at 6.97 µM] (inactive)
2. CC(C)Cn1cnc2c(N)nc3ccccc3c21: -0.3% [at 15.8 µM] (inactive)
3. C[C@H]1NCc2cc(-c3ccc4c(=O)c(C(=O)O)cn(C5CC5)c4c3OC(F)F)ccc21: -0.83% [at 15.8 µM] (inactive)

Entry under review: NC[C@H]1O[C@H](O[C@H]2[C@H](O[C@@H]3O[C@H](CO)[C@@H](O)[C@H]3O)C(O)[C@H](N)C[C@@H]2N)[C@H](N)[C@@H](O)[C@@H]1O (stereo not given in full) . Reported activity change, negative = cytotoxic?
0.467% [at 6.97 µM] (inactive)

Next record, please: `CC(C)(C)CC(C)(C)c1ccc(Nc2ccc(C(C)(C)CC(C)(C)C)cc2)cc1`
0.186% [at 6.97 µM] (inactive)

---

Test: qHTS RealTime-Glo MT Cell Viability Assay in HepG2 cells - 24 hour (AID 1224867); note: nearly all actives have a fitted effect of over 50% in size
Conditions: RealTime-Glo luminescence; series mostly up to 76.8 µM
Records with an inconclusive call do not appear. Calls of active or inactive are those of the source. Calls come from the whole dose curve; as a rule, active = well fitted cell-killing curve with a large enough effect in the repeat runs; inconclusive = weak or mixed curves; inactive = flat fitted curve, though single readings scatter.
Field 'call' accepts yes (1) = active, no (0) = inactive

1) Oc1c(I)cc(Cl)c2cccnc12: no (0)
2) C=CC(=O)Nc1cc2c(Nc3ccc(F)c(Cl)c3)ncnc2cc1OCCCN1CCOCC1: yes (1)

// return assay outcome for `O=C1NC(=O)[C@@H]2CC=CC[C@H]12`
no (0)

---

Assay: qHTS assay to identify small molecule antagonists of the estrogen related receptor signaling pathway with the pleiotropic PPARgamma coactivator (PGC) from Tox21 10K library (AID 1224841); note: actives are mostly falling curves and most rising ones were filed inactive; nearly all actives have a fitted effect of over 50% in size
Conditions: PGC/ERR reporter cell line, ONE-Glo luciferase, 18 h; series mostly up to 92.4 µM
Records with an inconclusive call do not appear. Activity calls are given as the source filed them. The rule behind the calls is not given here.
Field 'call' accepts active, inactive

// return assay outcome for `CCC(=O)C(=O)CC`
inactive

Next record, please: `C#C[C@]1(OC(C)=O)CC[C@H]2[C@@H]3CCC4=C[C@@H](OC(C)=O)CC[C@@H]4[C@H]3CC[C@@]21C`
active

Next record, please: `O=S(=O)(O)c1ccc(Nc2nc(Nc3ccc(/C=C/c4ccc(Nc5nc(Nc6ccc(S(=O)(=O)O)cc6)nc(N(CCO)CCO)n5)cc4S(=O)(=O)O)c(S(=O)(=O)O)c3)nc(N(CCO)CCO)n2)cc1`
inactive

Next record, please: `Cc1c(C)c([N+](=O)[O-])c(C(C)(C)C)c([N+](=O)[O-])c1C`
inactive

Next record, please: `O=C(/C=C/c1ccccc1)OC/C=C/c1ccccc1`
inactive

---

Test: qHTS assay to identify small molecule agonists of the endoplasmic reticulum stress response signaling pathway - cell viability counter screen (AID 1159517); note: nearly all actives have a fitted effect of over 50% in size
Settings: ESRE-bla HeLa viability, CellTiter-Glo luminescence, 5 h; series mostly up to 61 µM
Records with an inconclusive call do not appear. Active and inactive are the calls of the source. Calls follow the shape of the full dose curve.
Field 'call' accepts active, inactive

1) O=C1c2ccccc2C(=O)N1SC1CCCCC1: active
2) Cc1ccc(O)c(O)c1: inactive
3) COc1ccc(NC(=O)CC(C)=O)cc1: inactive

// return assay outcome for `Oc1cc(Cl)cc(Cl)c1Cl`
inactive

Next record, please: CC(C)(C)c1ccc(C(O)CCCN2CCC(C(O)(c3ccccc3)c3ccccc3)CC2)cc1 (configuration not stated)
active

Next record, please: `COC1=C(OC)C(=O)C(CCCCCCCCCCO)=C(C)C1=O`
inactive

Next record, please: `C[Si](Cl)(c1ccccc1)c1ccccc1`
inactive
